All values here come from ChEMBL document CHEMBL5120932.

experimentalProtocol: Induction of mitotic arrest in human RPE cells over expressing H2B-GFP-fused MYC assessed as minimum effective concentration for polyploidy measured after 24 to 72 hrs by fluorescence microscopy
Type: functional
runConditions: time 24-72 hrs, read-out: MEC
Parameter minimal effective concentration: see the listing below.
Your answer is read as µM, so omit the unit and give the number.

Consider the reported minimal effective concentration for these compounds:
| compoundSmiles | unitInfo | assayValue |
| --- | --- | --- |
| COC(=O)C1=C(O)c2ccccc2N(Cc2ccc(C)cc2C)C(=O)C1 | µM | 1.25 |
| COC(=O)C1=C(O)c2ccccc2N(Cc2ccc(C#N)cc2)C(=O)C1 | µM | 40 |
| COC(=O)C1=C(O)c2ccccc2N(Cc2ccc(OC)cc2)C(=O)C1 | µM | 0.156 |

Measured minimal effective concentration of COC(=O)C1=C(O)c2cc(OC)c(OC)cc2N(Cc2ccc(C)c(F)c2)C(=O)C1 : 0.312

Recorded minimal effective concentration (compound COC(=O)C1=C(O)c2ccccc2N(Cc2ccc(F)cc2)C(=O)C1 ): 40

Entry COC(=O)C1=C(O)c2ccccc2N(Cc2cccc(F)c2)C(=O)C1 , minimal effective concentration reported as 40

Entry under test: CCc1ccc(CN2C(=O)CC(C(=O)OC)=C(O)c3ccccc32)cc1 . Its minimal effective concentration was 0.078

Recorded minimal effective concentration (compound COC(=O)C1=C(O)c2ccccc2N(Cc2ccc(C(C)(C)C)cc2)C(=O)C1 ): 40

For COC(=O)C1=C(O)c2ccccc2N(Cc2ccc(C(F)(F)F)cc2)C(=O)C1 the compound record lists minimal effective concentration as 10

GET /value?item= COC(=O)C1=C(O)c2ccccc2N(Cc2ccc(OC)c(F)c2)C(=O)C1 &field=minimal effective concentration returns 0.039

compound COC(=O)C1=C(O)c2ccccc2N(Cc2cccc(OC)c2)C(=O)C1 , minimal effective concentration observed: 20

Value of measured minimal effective concentration for the entry COC(=O)C1=C(O)c2ccccc2N(Cc2ccc(C)cc2)C(=O)C1 : 0.625

The measured minimal effective concentration associated with COC(=O)C1=C(O)c2scc(C)c2N(Cc2ccc(C)c(F)c2)C(=O)C1 reads 0.312
